Species: Homo sapiens
ASSAY METHOD TEXT: To identify inhibition of the IFN signalling (Jak-Stat) pathway via expression of an eGFP reporter gene under the control of an IFN-stimulated response element (ISRE) containing MxA promoter.
Format: functional
Set-up: scale not given: direction of the effect not stated beside the values
CONDITIONS: 30 µM
PROPERTY: Percent Effect (%)
Give bare numbers, in %.

[
  {
    "COMPOUND": "COc1cc(CNC(=O)NCCCF)cc(Br)c1OC",
    "Percent Effect [%]": 25.5
  },
  {
    "COMPOUND": "O=C(NCc1ccc(-n2cncn2)nc1)c1ccoc1",
    "Percent Effect [%]": 3.65
  },
  {
    "COMPOUND": "CN(C)C(=O)CSc1nnc(CCNC(=O)OC(C)(C)C)o1",
    "Percent Effect [%]": 10.4
  },
  {
    "COMPOUND": "CC(C)CC1SCC(=O)Nc2c1cnn2-c1ccc(F)cc1 (configuration not stated)",
    "Percent Effect [%]": 1.9
  },
  {
    "COMPOUND": "N#Cc1ccccc1C(=O)N1CCC2(CC(=O)NC2=O)C1 (configuration not stated)",
    "Percent Effect [%]": 14.1
  }
]

List Percent Effect for every entry below, keeping the order given.
1. Cc1nn(C)c(C)c1C1CCCN1C(=O)c1ccc(CN(C)C)cc1 (configuration not stated)
2. O=C(CN1CC(n2cccn2)C1)NCCc1c[nH]c2ccccc12
3. CC(C)COC(C)C(=O)N1CCN(S(C)(=O)=O)CC1 (configuration not stated)
4. CCc1nnc2n1CCN(C(=O)c1cnc3ccccc3n1)C2

Completion:
1: 11.4; 2: 10.4; 3: -1.94; 4: -6.01

Lab note: each compound below needs its Percent Effect filled in.
1. CCC(=O)N1CCC(c2nnc(Cn3cccn3)n2C2CC2)CC1
2. CC(=O)N1CCCC(Cc2cncc(Br)c2)CC1 (configuration not stated)
3. Cc1nc(CC(=O)N2CCC[C@H]2c2nc(C(C)C)no2)cs1

Completion:
-1.41
24.7
-13.6

Value source: ChEMBL document CHEMBL3988442
